Recorded measurements of phosphorylation enrichment, one per entry
Assayed system: Fes (UniProt P07332)
Sequence (P07332 whole entry, looked up): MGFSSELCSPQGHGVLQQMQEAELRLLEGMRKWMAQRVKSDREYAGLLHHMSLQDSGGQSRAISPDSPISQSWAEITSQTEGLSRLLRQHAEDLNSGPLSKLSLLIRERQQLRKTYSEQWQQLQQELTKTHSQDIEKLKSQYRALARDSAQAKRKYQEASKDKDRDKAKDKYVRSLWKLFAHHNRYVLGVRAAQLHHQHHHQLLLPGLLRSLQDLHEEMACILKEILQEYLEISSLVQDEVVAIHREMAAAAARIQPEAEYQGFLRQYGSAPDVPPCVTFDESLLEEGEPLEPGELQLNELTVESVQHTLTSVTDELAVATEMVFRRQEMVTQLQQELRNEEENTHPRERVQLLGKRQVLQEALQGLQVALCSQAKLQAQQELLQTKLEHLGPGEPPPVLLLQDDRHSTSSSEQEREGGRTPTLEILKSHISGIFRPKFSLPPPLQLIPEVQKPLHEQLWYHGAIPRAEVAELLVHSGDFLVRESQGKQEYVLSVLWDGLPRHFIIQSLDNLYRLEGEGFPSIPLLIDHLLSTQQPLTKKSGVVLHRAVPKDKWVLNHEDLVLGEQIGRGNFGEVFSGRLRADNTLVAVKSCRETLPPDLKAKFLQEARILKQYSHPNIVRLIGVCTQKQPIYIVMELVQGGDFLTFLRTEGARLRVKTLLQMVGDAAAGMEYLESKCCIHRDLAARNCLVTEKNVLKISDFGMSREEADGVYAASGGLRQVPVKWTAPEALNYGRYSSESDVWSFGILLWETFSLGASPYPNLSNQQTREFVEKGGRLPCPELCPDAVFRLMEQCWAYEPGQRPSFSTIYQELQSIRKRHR
Method notes: phosphorylation enrichment, bacterial display (enrichment ratio); higher = better substrate or ligand; peptides without Tyr show the background;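 note: 11-residue human phosphosite peptides and single-mutation variants displayed on the E. coli surface, counted by deep sequencing, each peptide's frequency after selection divided by its frequency in the unselected input library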;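 note: frequency after pTyr selection over input frequency; kinase dosed for 20-30% of maximal phosphorylation in three min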
# respond with the number and nothing more

> print(dat)
                   sequence.chain          measured.parameter  reading
1      RNGDRYFKEIV [DCX_Y64_G67E]  phosphorylation enrichment    0.705
2   LFCLHYFHRTF [SRD5A2_Y91_V89L]  phosphorylation enrichment     1.93
3          ESPGLYGFLNV [BCR_Y910]  phosphorylation enrichment      1.1
4     AHPGEYGAEAL [HBA1_Y25_A22P]  phosphorylation enrichment    0.768
5  WCSNDHLGMSR [ALAS2_Y199_Y199H]  phosphorylation enrichment    0.671
6   TGVWDYIHVVD [GALE_Y241_R239W]  phosphorylation enrichment     1.43

Problem: I would be grateful if you could share the reported phosphorylation enrichment for PVKAAYQKVVA [HBB_Y131_Q128K] .
Solution: 0.823

Problem: Another: WDLPEYSYKDP [ITGA3_Y237_S235P]
Solution: 1.18

Problem: Subsequent entry: LGPDGYSTVDR [ARVCF_Y901]
Solution: 1.31

Problem: Entry to check: EEGRVYVFRLS [ITGAE_Y549_YF]
Solution: 1.37
